SYSTEM_NAME: T1, monkey GPC3-His protein (monkey)
T1 construct: Bought recombinant protein; also called monkey GPC3 protein
EXPERIMENTAL_PROTOCOL: SPR, antibody captured on Protein A chip, monkey GPC3-His analyte;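 also: run at 25 °C with 240 s association and up to 600 s dissociation, double-referenced, kinetics fitted to a 1:1 Langmuir binding model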
RESULT_TYPE: Kd (nM)
Kindly provide the numeric value in nM only, without the unit symbol.

Below, 9 binders whose answers are already recorded.
[
  {
    "BINDER": "F1.9.19 (antibody, human IgG1, kappa, V domains shown, Human-murine chimeric antibody) VH: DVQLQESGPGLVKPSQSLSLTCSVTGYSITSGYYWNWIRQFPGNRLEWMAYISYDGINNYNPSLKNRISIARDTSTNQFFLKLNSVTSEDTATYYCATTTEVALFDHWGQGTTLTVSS VL: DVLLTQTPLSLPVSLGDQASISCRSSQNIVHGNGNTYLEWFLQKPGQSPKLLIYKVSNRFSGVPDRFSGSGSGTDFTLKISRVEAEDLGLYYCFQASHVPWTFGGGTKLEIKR",
    "Kd (nM)": 6.61
  },
  {
    "BINDER": "F4.21.16 (antibody, human IgG1, kappa, V domains shown, Human-murine chimeric antibody) VH: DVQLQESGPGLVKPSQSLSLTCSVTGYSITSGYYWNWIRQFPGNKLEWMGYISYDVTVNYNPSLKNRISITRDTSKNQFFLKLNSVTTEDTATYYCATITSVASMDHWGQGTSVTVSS VL: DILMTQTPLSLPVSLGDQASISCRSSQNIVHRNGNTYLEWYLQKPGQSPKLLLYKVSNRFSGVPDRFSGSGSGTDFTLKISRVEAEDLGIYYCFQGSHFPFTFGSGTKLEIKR",
    "Kd (nM)": 7.81
  },
  {
    "BINDER": "F1.57.21 (antibody, human IgG1, kappa, V domains shown, Human-murine chimeric antibody) VH: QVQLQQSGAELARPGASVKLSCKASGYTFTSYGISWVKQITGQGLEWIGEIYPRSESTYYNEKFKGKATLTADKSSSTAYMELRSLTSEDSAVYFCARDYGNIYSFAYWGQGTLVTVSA VL: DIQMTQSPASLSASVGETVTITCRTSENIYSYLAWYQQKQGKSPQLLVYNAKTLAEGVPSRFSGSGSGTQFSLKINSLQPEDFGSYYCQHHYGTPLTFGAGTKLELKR",
    "Kd (nM)": 13
  },
  {
    "BINDER": "F3.81.19 (antibody, human IgG1, kappa, V domains shown, Human-murine chimeric antibody) VH: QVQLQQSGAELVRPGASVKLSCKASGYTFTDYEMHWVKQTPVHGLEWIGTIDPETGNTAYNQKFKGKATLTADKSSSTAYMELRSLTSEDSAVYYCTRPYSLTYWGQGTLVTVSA VL: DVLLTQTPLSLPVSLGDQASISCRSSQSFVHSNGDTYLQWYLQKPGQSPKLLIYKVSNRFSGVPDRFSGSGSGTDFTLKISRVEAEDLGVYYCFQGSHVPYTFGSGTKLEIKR",
    "Kd (nM)": 0.415
  },
  {
    "BINDER": "F2.39.2 (antibody, human IgG1, kappa, V domains shown, Human-murine chimeric antibody) VH: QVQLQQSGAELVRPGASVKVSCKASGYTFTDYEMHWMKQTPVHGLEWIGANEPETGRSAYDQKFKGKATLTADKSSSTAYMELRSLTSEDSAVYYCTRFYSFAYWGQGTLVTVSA VL: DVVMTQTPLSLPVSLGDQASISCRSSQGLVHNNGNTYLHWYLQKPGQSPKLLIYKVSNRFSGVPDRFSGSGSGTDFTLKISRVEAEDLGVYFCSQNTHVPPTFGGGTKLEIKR",
    "Kd (nM)": 4.28
  },
  {
    "BINDER": "F1.118.4 (antibody, human IgG1, kappa, V domains shown, Human-murine chimeric antibody) VH: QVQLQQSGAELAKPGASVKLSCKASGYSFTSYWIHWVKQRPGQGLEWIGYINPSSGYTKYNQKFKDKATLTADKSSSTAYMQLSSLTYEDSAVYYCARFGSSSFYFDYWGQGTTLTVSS VL: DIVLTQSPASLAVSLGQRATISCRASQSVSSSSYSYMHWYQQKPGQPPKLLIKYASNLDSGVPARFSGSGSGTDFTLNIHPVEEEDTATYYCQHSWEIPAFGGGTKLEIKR",
    "Kd (nM)": 0.226
  },
  {
    "BINDER": "F1.115.8 (antibody, human IgG1, kappa, V domains shown, Human-murine chimeric antibody) VH: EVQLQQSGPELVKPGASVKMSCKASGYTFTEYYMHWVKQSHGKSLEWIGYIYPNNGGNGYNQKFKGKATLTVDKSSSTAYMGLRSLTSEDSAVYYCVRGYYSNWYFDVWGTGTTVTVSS VL: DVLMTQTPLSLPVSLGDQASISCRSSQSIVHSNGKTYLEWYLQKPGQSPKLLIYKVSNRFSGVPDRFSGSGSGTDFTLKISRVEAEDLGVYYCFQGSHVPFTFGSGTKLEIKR",
    "Kd (nM)": 1.05
  },
  {
    "BINDER": "F4.13.7 (antibody, human IgG1, kappa, V domains shown, Human-murine chimeric antibody) VH: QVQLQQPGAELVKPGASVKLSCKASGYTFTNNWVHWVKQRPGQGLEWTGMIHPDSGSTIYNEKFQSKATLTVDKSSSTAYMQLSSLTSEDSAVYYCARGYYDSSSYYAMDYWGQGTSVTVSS VL: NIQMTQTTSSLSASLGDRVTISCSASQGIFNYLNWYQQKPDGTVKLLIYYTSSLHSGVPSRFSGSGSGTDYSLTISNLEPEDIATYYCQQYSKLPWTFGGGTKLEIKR",
    "Kd (nM)": 31.4
  },
  {
    "BINDER": "F3.38.7 (antibody, human IgG1, kappa, V domains shown, Human-murine chimeric antibody) VH: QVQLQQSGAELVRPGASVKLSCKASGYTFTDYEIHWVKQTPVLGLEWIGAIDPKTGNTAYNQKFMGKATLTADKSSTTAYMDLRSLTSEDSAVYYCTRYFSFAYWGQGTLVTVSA VL: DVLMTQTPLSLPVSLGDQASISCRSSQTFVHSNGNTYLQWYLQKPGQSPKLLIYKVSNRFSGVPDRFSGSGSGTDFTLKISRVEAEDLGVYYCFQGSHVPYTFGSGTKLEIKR",
    "Kd (nM)": 0.725
  }
]

# get_value(readout='Kd', item= F2.92.1 (antibody, human IgG1, kappa, V domains shown, Human-murine chimeric antibody) VH: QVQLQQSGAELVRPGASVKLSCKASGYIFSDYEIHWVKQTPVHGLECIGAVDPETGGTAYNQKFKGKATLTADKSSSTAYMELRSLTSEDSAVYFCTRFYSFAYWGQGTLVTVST VL: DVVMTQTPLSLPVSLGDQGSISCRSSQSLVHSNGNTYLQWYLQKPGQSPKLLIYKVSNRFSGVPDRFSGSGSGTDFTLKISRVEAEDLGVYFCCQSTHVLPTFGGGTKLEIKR ) 0.353
